Please provide measured Ki for the entries that follow.
Target: Dopamin (D₂)-Rezeptor (Rattus norvegicus, UniProt P61169)
Construct: Die Striata werden herauspräpariert und in 25 ml eiskaltem Puffer; from tissue; host or cells: rat striatum membrane homogenate
Sequence (P61169 whole entry): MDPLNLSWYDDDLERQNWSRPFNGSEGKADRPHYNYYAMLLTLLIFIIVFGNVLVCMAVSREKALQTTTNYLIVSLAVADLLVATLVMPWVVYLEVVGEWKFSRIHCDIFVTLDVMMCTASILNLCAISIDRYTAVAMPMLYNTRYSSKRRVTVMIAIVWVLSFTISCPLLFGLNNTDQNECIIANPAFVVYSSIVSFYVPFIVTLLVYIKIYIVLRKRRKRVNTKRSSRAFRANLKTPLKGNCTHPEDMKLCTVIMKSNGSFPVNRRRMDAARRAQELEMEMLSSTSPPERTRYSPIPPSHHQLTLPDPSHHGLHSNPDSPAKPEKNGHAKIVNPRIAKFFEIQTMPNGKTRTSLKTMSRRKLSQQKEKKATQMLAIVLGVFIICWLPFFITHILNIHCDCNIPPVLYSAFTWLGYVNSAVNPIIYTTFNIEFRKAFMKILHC
Assay: Dopamine (D2) receptor binding affinity, 3H-spiroperidol displacement in rat striatal homogenate
Set-up: species or system Ratten
Conditions: rat striata, 3H-Spiroperidol 2,5 × 10⁻¹⁰ M, 60 min at room temperature; Ki calculated from IC50; read-out: Ki
Numbers only, in nM.

>>> measured_result("CCCN1CCC=C(c2csc(N)n2)C1 [Substanz A]")
36

Give Ki for each listed item.
1. C=CCN1CCC=C(c2csc(N)n2)C1 [Substanz B]
2. Nc1nc(C2=CCCNC2)cs1 [Substanz E]

1: 8; 2: 3
